IC50: recorded values
SYSTEM UNDER TEST: UniProtKB P28482
Sequence (P28482 whole entry): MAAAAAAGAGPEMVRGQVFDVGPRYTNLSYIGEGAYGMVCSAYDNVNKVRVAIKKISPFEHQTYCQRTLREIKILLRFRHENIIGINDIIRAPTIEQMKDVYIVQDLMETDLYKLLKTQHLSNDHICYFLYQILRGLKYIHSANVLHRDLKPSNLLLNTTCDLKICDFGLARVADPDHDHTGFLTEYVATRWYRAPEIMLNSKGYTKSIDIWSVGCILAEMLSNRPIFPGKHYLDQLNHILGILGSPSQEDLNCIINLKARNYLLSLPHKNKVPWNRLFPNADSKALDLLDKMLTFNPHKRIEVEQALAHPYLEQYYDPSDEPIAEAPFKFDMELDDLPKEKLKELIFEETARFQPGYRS
Supply the numeric figure in nM, leaving out any unit text.

Reference set (3 entries):
CN(C)C[C@H](c1ccc(Cl)c(Cl)c1)n1ccc(-c2c[nH]c3ncc(N4CCOCC4)cc23)cc1=O [Compound no4 (S)]	3.1
CN(C)CC(c1cc(F)cc(I)c1)n1ccc(-c2c[nH]c3ncc(N4CCOCC4)cc23)cc1=O (racemic) [Compound no10 (racemate)]	5.1
CN(C)C[C@H](c1ccc(F)c(I)c1)n1ccc(-c2c[nH]c3ncc(N4CCOCC4)cc23)cc1=O [Compound no8 (S)]	2.2

Which IC50 is listed for CN(C)CC(c1cc(F)cc(Cl)c1)n1ccc(-c2c[nH]c3ncc(N4CCOCC4)cc23)cc1=O (racemic) [Compound no9 (racemate)] ? 7.7

Suppose we examine the compound CN(C)C[C@H](c1cccc(Br)c1)n1ccc(-c2c[nH]c3ncc(N4CCOCC4)cc23)cc1=O [Compound no5 (S)] ; what IC50 value has been reported? 4.5

Need IC50 of CN(C)C[C@H](c1ccc(F)c(Br)c1)n1ccc(-c2c[nH]c3ncc(N4CCOCC4)cc23)cc1=O [Compound no7 (S)] , thanks. 4.1

Entry under review: CN(C)C[C@H](c1cccc(Cl)c1)n1ccc(-c2c[nH]c3ncc(N4CCOCC4)cc23)cc1=O [Compound no2 (S)] . Reported IC50? 2.1

Return reported IC50; argument: CN(C)C[C@H](c1cccc(F)c1)n1ccc(-c2c[nH]c3ncc(N4CCOCC4)cc23)cc1=O [Compound no1 (S)] 1.2

Would you mind telling me what IC50 value was observed for CN(C)C[C@H](c1cccc(Cl)c1)n1ccc(-c2c[nH]c3ncc(N4CCOCC4)c(F)c23)cc1=O [Compound no22 (S)] ? 4

// lookup IC50 for CN(C)C[C@H](c1ccc(F)c(F)c1)n1ccc(-c2c[nH]c3ncc(N4CCOCC4)cc23)cc1=O [Compound no17 (S)] 2.7

I would be grateful if you could share the reported IC50 for CN(C)C[C@H](c1cccc(I)c1)n1ccc(-c2c[nH]c3ncc(N4CCOCC4)cc23)cc1=O [Compound no6 (S)] . 2.4

Which IC50 is reported for this compound? CN(C)C[C@H](c1cc(Cl)cc(Cl)c1)n1ccc(-c2c[nH]c3ncc(N4CCOCC4)cc23)cc1=O [Compound no3 (S)] 3.2

Entry under review: COCc1cc(Cl)cc([C@@H](CN(C)C)n2ccc(-c3c[nH]c4ncc(N5CCOCC5)cc34)cc2=O)c1 [Compound no23 (S)] . Reported IC50? 4.5

Fill in: IC50 of CCN(C)C[C@H](c1cccc(Cl)c1)n1ccc(-c2c[nH]c3ncc(N4CCOCC4)cc23)cc1=O [Compound no15 (S)] is ___ 3.5
